measurement-target: Human LPA1 (Homo sapiens, UniProt Q92633)
Sequence (Q92633 whole entry): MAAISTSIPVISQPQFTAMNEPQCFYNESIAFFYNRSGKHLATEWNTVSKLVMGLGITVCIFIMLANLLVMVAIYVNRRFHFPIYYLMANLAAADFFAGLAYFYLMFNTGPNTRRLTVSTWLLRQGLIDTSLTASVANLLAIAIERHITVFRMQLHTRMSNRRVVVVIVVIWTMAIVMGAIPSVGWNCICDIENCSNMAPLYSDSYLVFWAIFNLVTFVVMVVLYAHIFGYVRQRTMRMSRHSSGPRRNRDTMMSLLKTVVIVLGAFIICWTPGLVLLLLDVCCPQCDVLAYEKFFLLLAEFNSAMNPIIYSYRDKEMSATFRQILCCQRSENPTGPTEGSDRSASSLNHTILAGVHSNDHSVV
procedure-text: Beta-Arrestin based assay for human LPA1R antagonists (PathHunter)
Format: cell-based
condition-parameters: CHO cells expressing ProLink tagged human LPA1R; antagonist mode, 0.5 micromolar LPA
pEC50: −log10 of the molar value.
// values below are reported pEC50

{"columns": ["molecule", "pEC50"],
 "data": [
  ["C[C@@H](OC(=O)Nc1c(C#Cc2cc3sc(C4(NS(C)(=O)=O)CC4)cc3s2)cnn1C)c1ccccc1 [IT089]", "< 6.30"],
  ["Cc1nsc(-c2ccc([C@H]3CC[C@@H](C(=O)O)CC3)cc2)c1NC(=O)O[C@H](C)c1ccccc1 [IT007]", "< 6.30"],
  ["C[C@@H](OC(=O)Nc1c(C#Cc2cc3sc(C4(C(=O)O)CC4)cc3s2)oc2ccccc12)c1ccccc1 [IT074]", "6.30 to 7.30"],
  ["Cc1noc(C#Cc2ccc(C3(CC(=O)O)CC3)cc2)c1NC(=O)O[C@H](C)c1ccccc1 [IT002]", "6.30 to 7.30"],
  ["CCn1ncc(C#Cc2cc3sc(C4(C(=O)O)CC4)cc3s2)c1NC(=O)O[C@H](C)c1ccccc1 [IT070]", "> 7.30"],
  ["C[C@@H](OC(=O)Nc1c(C#Cc2cc3sc(C4(C(=O)OCCN5CCOCC5)CC4)cc3s2)cnn1C)c1ccccc1 [IT082]", "6.30 to 7.30"],
  ["C[C@@H](OC(=O)Nc1c(-c2cc(F)c(-c3ccc(C4(C(=O)O)CCOCC4)cc3)cc2F)cnn1C)c1ccccc1 [IT044]", "> 7.30"],
  ["C[C@@H](OC(=O)Nc1c(-c2ccc(-c3ccc(C4(C(=O)O)CC4)cc3)cc2)cnn1C(F)(F)F)c1ccccc1 [IT094]", "> 7.30"],
  ["Cc1nsc(-c2ccc(-c3ccc(C4(C(=O)O)CC4)cc3)cc2)c1NC(=O)OC(c1ccccc1)C(F)(F)F (single isomer, unassigned) [IT079]", "< 6.30"]
]}

====

measurement-target: Human LPA1 (Homo sapiens, UniProt Q92633)
procedure-text: Beta-Arrestin based assay for human LPA1R antagonists (PathHunter)
condition-parameters: CHO cells expressing ProLink tagged human LPA1R; antagonist mode, 0.5 micromolar LPA

{"columns": ["molecule", "measurement-target", "EC50"],
 "data": [
  ["C[C@@H](OC(=O)Nc1c(-c2ccc(-c3cc4sc(C5(C(=O)O)CC5)cc4s3)cc2)cnn1C)c1ccccc1 [IT056]", "Human LPA1 (Homo sapiens, UniProt Q92633)", "< 50 nM"],
  ["C[C@@H](OC(=O)Nc1c(-c2ccc(-c3ccc(C4(C(=O)O)CC4)cc3)cc2)nn2ncccc12)c1ccccc1 [IT033]", "Human LPA1 (Homo sapiens, UniProt Q92633)", "< 50 nM"],
  ["C[C@@H](OC(=O)Nc1c(-c2ccc(-c3ccc(C4(C(=O)O)CC4)cc3)cc2)nc2n1CCN(S(C)(=O)=O)C2)c1ccccc1 [IT021]", "Human LPA1 (Homo sapiens, UniProt Q92633)", "> 500 nM"],
  ["Cc1nsc(-c2ccc(-c3cc4sc(C5(C(=O)O)CC5)cc4s3)cc2)c1NC(=O)O[C@H](C)c1ccccc1 [IT046]", "Human LPA1 (Homo sapiens, UniProt Q92633)", "< 50 nM"],
  ["C[C@@H](OC(=O)Nc1c(C#Cc2ccc3cc(C4(C(=O)O)CC4)ccc3c2)cnn1C1CC1)c1ccccc1 [IT015]", "Human LPA1 (Homo sapiens, UniProt Q92633)", "< 50 nM"]
]}
